Parameter growth: see the listing below.
- Tested on: SK-OV-3 ovarian
- EXPERIMENT_SUMMARY: NCI-60 one-dose screen, 48 h (100 = growth as untreated, 0 = no growth, -100 = all killed)
- EXPERIMENTAL_CONTEXT: 10 µM
This is part of a sample that, as a whole, favours compounds with a hit. Of some 83,000 tested, about 20% had one in any assay.

[
  {
    "MOLECULE": "COc1ccc2c(c1OC)O/C(=C\\c1ncc([N+](=O)[O-])n1C)C2=O",
    "OUTPUT_UNIT": "%",
    "growth": 24.8
  },
  {
    "MOLECULE": "O=C1C(=O)c2ccccc2C(O)=C1CCCc1ccc(C2CCCCCC2)cc1",
    "OUTPUT_UNIT": "%",
    "growth": 48.8
  },
  {
    "MOLECULE": "O=C1OCC2=C1C(c1ccc(Cl)c(Cl)c1)c1cc3c(cc1N2CCO)OCCO3 (stereo not given)",
    "OUTPUT_UNIT": "%",
    "growth": 29.5
  },
  {
    "MOLECULE": "CCCCCCNC(=O)Oc1ccc(/C(=C(/CC)Cc2ccccc2)c2ccc(OCCN3CCCCC3)cc2)cc1",
    "OUTPUT_UNIT": "%",
    "growth": 86.3
  },
  {
    "MOLECULE": "O=C(Nc1cccc(-n2cc(-c3ccncc3)c(-c3cc(O)cc(Cl)c3)n2)c1)c1ccc(N2CCOCC2)c(C(F)(F)F)c1",
    "OUTPUT_UNIT": "%",
    "growth": 50.7
  }
]

---

- Test system: HCT-15 colon
- EXPERIMENT_SUMMARY: NCI-60 one-dose screen, 48 h (100 = growth as untreated, 0 = no growth, -100 = all killed)
- EXPERIMENTAL_CONTEXT: 10 µM
Compounds without any hit were thinned out: in the full panel of roughly 83,000, 20% have a hit.
# thresholds on growth define classes: low bracket: < 30%; middle bracket: ≥ 30% and < 90%; high bracket: ≥ 90%

[
  {
    "MOLECULE": "O=C(Nc1ccncc1)C(=O)c1cn(S(=O)(=O)c2cc(Cl)cc(Cl)c2)c2ccccc12",
    "CLASS": "middle bracket"
  },
  {
    "MOLECULE": "CCN(CC)CCCC(C)Nc1ccc2ccc(Cl)cc2n1 (configuration not stated)",
    "CLASS": "high bracket"
  },
  {
    "MOLECULE": "Nc1ccn(C2CC(O)C(CO)O2)c(=O)n1 (configuration not stated)",
    "CLASS": "high bracket"
  },
  {
    "MOLECULE": "O=S(=O)(NCCNc1nccc(-c2c(-c3ccc(F)cc3)nc3sccn23)n1)c1ccc2ccccc2c1",
    "CLASS": "middle bracket"
  },
  {
    "MOLECULE": "CCOC(=O)C1(CC(C)C)CCOC1=O (configuration not stated)",
    "CLASS": "high bracket"
  },
  {
    "MOLECULE": "CCCCOc1ccc(NC(=O)Nc2nnc(C)s2)cc1",
    "CLASS": "high bracket"
  },
  {
    "MOLECULE": "O=c1c2ccccc2nc(SCCN2CCCCC2)n1CCc1ccccc1",
    "CLASS": "middle bracket"
  },
  {
    "MOLECULE": "CSc1nc(=O)n(Cc2ccc(Cl)cc2)c(=O)[nH]1",
    "CLASS": "high bracket"
  },
  {
    "MOLECULE": "CCCCN(CCCC)CCCCCCCCC(O)c1cc2ccccc2c2ccccc12 (configuration not stated)",
    "CLASS": "middle bracket"
  },
  {
    "MOLECULE": "CC/C(=C(/c1ccc(OCCN(C)C)cc1)c1ccc(OC(=O)CCC(=O)c2c(C)[nH]c(/C=C3\\N=C(c4ccc[nH]4)C=C3OC)c2C)cc1)c1ccccc1",
    "CLASS": "low bracket"
  },
  {
    "MOLECULE": "COc1ccc2c(c1)N(CCO)C1=C(C(=O)OC1)C2c1ccccc1 (configuration not stated)",
    "CLASS": "low bracket"
  },
  {
    "MOLECULE": "C#Cc1ccc(-n2c(/C=C/c3ccc(C(F)(F)F)cc3)nc3ncccc3c2=O)cc1",
    "CLASS": "low bracket"
  },
  {
    "MOLECULE": "O=C(O)c1ccc(Cl)cc1Nc1ccc(F)cc1",
    "CLASS": "middle bracket"
  },
  {
    "MOLECULE": "c1ccc(CP(Cc2ccccc2)c2ccccc2)cc1",
    "CLASS": "high bracket"
  },
  {
    "MOLECULE": "N#CSCC1CC(O)(c2ccccc2)CC(c2ccc(Cl)cc2)O1 (configuration not stated)",
    "CLASS": "middle bracket"
  },
  {
    "MOLECULE": "Cc1cccc2c1O/C(=C\\c1ccc([N+](=O)[O-])o1)C2=O",
    "CLASS": "low bracket"
  },
  {
    "MOLECULE": "C#Cc1ccc(-n2c(/C=C/c3ccc4ccccc4c3)nc3ncccc3c2=O)cc1",
    "CLASS": "low bracket"
  },
  {
    "MOLECULE": "OCC1OC(n2cnc3c(N/N=C\\c4ccccn4)ncnc32)C(O)C1O (configuration not stated)",
    "CLASS": "low bracket"
  },
  {
    "MOLECULE": "CCC1(C(C)C)NC(=O)NC1=O (configuration not stated)",
    "CLASS": "high bracket"
  },
  {
    "MOLECULE": "Cc1cc(C)c2c(n1)sc1c(Nc3ccc(Cl)cc3)ncnc12",
    "CLASS": "middle bracket"
  }
]
